assay: Human HepG2 cell viability assay in 384 well format; assay type: toxicity, cell-based; design: dose 125 nL, time 70.5 hour; concentration not given beside the values; settings: HepG2 cells, read-out: Inhibition
I'd be grateful if you could share measured cytotoxicity at 70.5 h for these entries.
One number for each entry, in %.

Molecule | Measured parameter | Numeric value
c1ccc(-c2nnc(CNCCn3cccn3)o2)cc1 | cytotoxicity at 70.5 h | -1.94
Cc1cc(C)n(CC2CCCCN2CC(=O)Nc2c(C)n[nH]c2C)n1 (stereo unspecified) | cytotoxicity at 70.5 h | 2.06
Cc1ccsc1-c1nc(CN(C)Cc2noc(C(C)C)n2)c(C)o1 | cytotoxicity at 70.5 h | -10.3
CCOCC(O)CN1CCN(C(=O)C2CCCCC2)CC1 (stereo unspecified) | cytotoxicity at 70.5 h | -0.878
CC(C)C1CN(C(=O)c2cc(=O)[nH]c(=O)[nH]2)CCC(=O)N1CC1CC1 (stereo unspecified) | cytotoxicity at 70.5 h | -2.3
CCc1nc2n(n1)CCCC2NC(=O)Nc1cc(OC)ccc1C (stereo unspecified) | cytotoxicity at 70.5 h | 3.05
CC(C)[C@H]1COC(=O)N1CC(=O)N1CCN(C(=O)c2ccco2)CC1 | cytotoxicity at 70.5 h | 8.43
OCCNc1nc(Nc2ccccc2)c2nccnc2n1 | cytotoxicity at 70.5 h | -0.149
O=C(C[S+]([O-])Cc1ccc(Cl)cc1Cl)N1CCc2sccc2C1 (stereo unspecified) | cytotoxicity at 70.5 h | -3.09
Cc1nc(C)c(C(=O)N2CCc3cc(F)ccc3C2C)o1 (stereo unspecified) | cytotoxicity at 70.5 h | -4.82

Hi, could you look up cytotoxicity at 70.5 h for each item in my list?
1. Cn1ccnc1SCC(=O)NCc1ccc2c(c1)CCC(=O)N2
2. CC1=C(C#N)C(=O)NC(=O)/C1=C\c1c(C)nn(-c2ccc(Cl)cc2)c1O
3. Cc1cccc(C(=O)NCCCN2CCc3ccccc3C2)c1C
4. CC(=O)N1CCCC1c1nccnc1Nc1cccc(C)n1 (stereo unspecified)
5. CN(C)C(=O)c1ccc2ccc(N3CCN(CC4CC4)CC3)n2c1
6. CCCS(=O)(=O)N1C[C@@H](c2nc(C)no2)C[C@H]2OCC[C@H]21
7. c1csc(CN2CCn3c(Cn4cncn4)cnc3C2)c1
8. COCCC(=O)N1CCC(c2ccc3c(NC(C)C)n[nH]c3n2)C1 (stereo unspecified)

1: 2.79; 2: -6.07; 3: -7.53; 4: -16.6; 5: 19.2; 6: -0.391; 7: 27.5; 8: -6.39
